# reported Percent Similarity Score (KD on cN); entries follow
# Assayed target: T1, canine NGF (canine, UniProt Q29074 110-229 (pig entry), limits assumed)
# T1 construct: The protein was secreted from CHO cells and purified; also called cNGF; canine β-NGF
# T1 chain: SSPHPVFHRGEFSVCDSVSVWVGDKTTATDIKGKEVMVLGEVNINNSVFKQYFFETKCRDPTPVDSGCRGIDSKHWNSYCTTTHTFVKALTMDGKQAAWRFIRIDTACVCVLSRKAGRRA
# Measurement description: SPR (Biacore T200), 100 nM mAb on NGF chip, similarity to parent mAb
Express your answer in %, writing the number without its unit.

Some entries whose results are on file:
{"Binder": "can9L12VH_G54A (antibody, V domains shown) VH: EVQLVESGGDLVKPGGSLRLSCVASGFTFSSHGMHWVRQSPGKGLQWVAVINSAGSSTYYTDAVKGRFTISRDNAKNTVYLQMNSLRAEDTAMYYCAKESVGGWEQLVGPHFDYWGQGTLVIVSS VL: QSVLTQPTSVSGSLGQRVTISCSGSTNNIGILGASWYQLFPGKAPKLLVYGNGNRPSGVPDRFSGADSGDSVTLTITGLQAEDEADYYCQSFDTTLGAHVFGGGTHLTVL", "Percent Similarity Score (KD on cN) / %": 100}
{"Binder": "can9L12VH_K98A (antibody, V domains shown) VH: EVQLVESGGDLVKPGGSLRLSCVASGFTFSSHGMHWVRQSPGKGLQWVAVINSGGSSTYYTDAVKGRFTISRDNAKNTVYLQMNSLRAEDTAMYYCAAESVGGWEQLVGPHFDYWGQGTLVIVSS VL: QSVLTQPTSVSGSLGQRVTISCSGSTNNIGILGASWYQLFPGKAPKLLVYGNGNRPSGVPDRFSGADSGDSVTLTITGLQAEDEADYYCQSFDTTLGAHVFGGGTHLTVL", "Percent Similarity Score (KD on cN) / %": 22.8}
{"Binder": "can9L12VH_Q106A (antibody, V domains shown) VH: EVQLVESGGDLVKPGGSLRLSCVASGFTFSSHGMHWVRQSPGKGLQWVAVINSGGSSTYYTDAVKGRFTISRDNAKNTVYLQMNSLRAEDTAMYYCAKESVGGWEALVGPHFDYWGQGTLVIVSS VL: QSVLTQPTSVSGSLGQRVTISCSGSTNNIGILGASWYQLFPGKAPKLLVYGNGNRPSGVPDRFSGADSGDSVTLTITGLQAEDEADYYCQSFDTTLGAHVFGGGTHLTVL", "Percent Similarity Score (KD on cN) / %": 100}

Input line: Complete the entry with Percent Similarity Score (KD on cN) for can9L12VL_N28A (antibody, V domains shown) VH: EVQLVESGGDLVKPGGSLRLSCVASGFTFSSHGMHWVRQSPGKGLQWVAVINSGGSSTYYTDAVKGRFTISRDNAKNTVYLQMNSLRAEDTAMYYCAKESVGGWEQLVGPHFDYWGQGTLVIVSS VL: QSVLTQPTSVSGSLGQRVTISCSGSTNAIGILGASWYQLFPGKAPKLLVYGNGNRPSGVPDRFSGADSGDSVTLTITGLQAEDEADYYCQSFDTTLGAHVFGGGTHLTVL
Output line: 6.6

Input line: Please give measured Percent Similarity Score (KD on cN) of the following entry: can9L12VL_L96A (antibody, V domains shown) VH: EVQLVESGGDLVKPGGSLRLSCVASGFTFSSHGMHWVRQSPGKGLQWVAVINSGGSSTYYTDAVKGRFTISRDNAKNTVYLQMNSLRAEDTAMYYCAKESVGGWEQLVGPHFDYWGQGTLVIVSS VL: QSVLTQPTSVSGSLGQRVTISCSGSTNNIGILGASWYQLFPGKAPKLLVYGNGNRPSGVPDRFSGADSGDSVTLTITGLQAEDEADYYCQSFDTTAGAHVFGGGTHLTVL
Output line: 97

Input line: Look up and state reported Percent Similarity Score (KD on cN) for can48L2VL_A98L (antibody, V domains shown, CDR scanning mutant of ZTS-842 (48L2)) VH: EVQLVESGGDLVKPGGSLRLSCVASGFTFSTYGINWVRQAPGKGLQWVAYISSGGSSTYYADPVKGRFTISRDDAKNMLYLQMNSLRAEDTAIYYCAGSRYTYAYGGGYEFHFWGQGTLVTVSS VL: QAVLNQPASVSGALGQKVTISCSGSTMDIDIFGVSWYQQLPGKAPKLLVDSDGDRPSGIPDRFSGSRSGNSGTLTITGLQAEDEADYHCQSGDSTLGLLAIFGGGTHVTVL
Output line: 97.3

Input line: Read the entry can48L2VL_I29A (antibody, V domains shown, CDR scanning mutant of ZTS-842 (48L2)) VH: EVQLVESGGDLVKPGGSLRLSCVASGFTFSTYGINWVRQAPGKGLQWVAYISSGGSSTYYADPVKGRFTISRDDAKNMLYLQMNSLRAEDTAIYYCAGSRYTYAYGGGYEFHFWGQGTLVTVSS VL: QAVLNQPASVSGALGQKVTISCSGSTMDADIFGVSWYQQLPGKAPKLLVDSDGDRPSGIPDRFSGSRSGNSGTLTITGLQAEDEADYHCQSGDSTLGALAIFGGGTHVTVL and write its reported Percent Similarity Score (KD on cN).
Output line: 47
